Data provenance is paper PMC10397247.

Target: T1, 4H909-AA
T1 chain: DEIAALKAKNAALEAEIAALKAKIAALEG
Assay: two-hybrid library CCmax;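 also: natural log of median RNA to DNA barcode read ratio; higher means stronger binding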
Conditions: mean of both orientations
// returns not fulfilled unless interaction score is strictly below -1, in which case fulfilled

Completed entries (count: 4):
BINDER: DEIAALEAKNAALKAEIAALKAEIAALKG [4H458-AA]
DISCRETE LABEL: not fulfilled
--
BINDER: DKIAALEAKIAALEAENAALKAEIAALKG [4H2330-AA]
DISCRETE LABEL: fulfilled
--
BINDER: DKIAALKAKIAALEAKNAALEAEIAALEG [4H2865-AA]
DISCRETE LABEL: not fulfilled
--
BINDER: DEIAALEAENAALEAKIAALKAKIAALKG [4H174-AA]
DISCRETE LABEL: not fulfilled

For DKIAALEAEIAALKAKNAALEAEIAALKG [4H2162-AA] , is the recorded interaction score below the cut-off of -1?
fulfilled

Regarding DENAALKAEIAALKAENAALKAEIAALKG [4H1626-AA] , kindly confirm whether its interaction score is beneath -1.
fulfilled
